Where do the numbers come from? From paper PMC9482650.

- TARGET UNDER TEST: T1, SNTG2, Q9NY99
- T1 sequence (Q9NY99 68-166, limits assumed, looked up): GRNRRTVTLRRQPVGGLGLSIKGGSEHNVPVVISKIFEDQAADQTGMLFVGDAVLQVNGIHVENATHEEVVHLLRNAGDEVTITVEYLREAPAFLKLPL
- PROCEDURE TEXT: holdup assay
- Set-up: key: below the threshold = too weak to quantify, mostly under pKd 3.1 to 4
- TEST SETTINGS: plain residues with an end cap or a label only (N-terminal biotin on a linker: ado-ado)
PROPERTY NAME: pKd

Here's what some known entries look like.
BINDER: EDPRVEVTQF [SLC22A9, Q8IVM8]
pKd: below the threshold

BINDER: STKRKLASAV [NCF1, P14598]
pKd: below the threshold

BINDER: LESTTVGTSV [KARS1, Q15046]
pKd: below the threshold

BINDER: LPAVCYDIDI [PTTG2, Q9NZH5]
pKd: below the threshold

BINDER: PSVGSKKTVL [REELD1, A0A1B0GV85]
pKd: 3.66

Dear reader, for each entry below, please note its pKd.
1. SRSVVESDEL [MYPN, Q86TC9]
2. NISYRRESAI [KCNJ4, P48050]
3. PYSESDDDWC [CACNA1A, O00555]
4. SFISKKEWYV [NECTIN1, Q15223]
5. RSSGGDDFWF [KCNV1, Q6PIU1]
6. ELSATVTTDC [TRIP6, Q15654]
7. QRPYRRGSEI [KCNJ18, B7U540]

["below the threshold", "below the threshold", "below the threshold", 3.49, "below the threshold", 3.79, "below the threshold"]

Kindly give each listed record's pKd.
1. PSHPRLQTHV [KIRREL2, Q6UWL6]
2. DDASLPVSDV [PLEKHA1, Q9HB21]
3. ILRKSTTTTV [PRR16, Q569H4]
4. VKRNSKETVV [MARCHF3, Q86UD3]

["below the threshold", 4.48, "below the threshold", 4.54]
